# ASSAY SYSTEM: DPAP1 (Plasmodium falciparum);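 note: 30 min substrate incubation versus DMSO and 10 µM JCP410 controls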
# Sequence (Q8IIJ9 whole entry, looked up): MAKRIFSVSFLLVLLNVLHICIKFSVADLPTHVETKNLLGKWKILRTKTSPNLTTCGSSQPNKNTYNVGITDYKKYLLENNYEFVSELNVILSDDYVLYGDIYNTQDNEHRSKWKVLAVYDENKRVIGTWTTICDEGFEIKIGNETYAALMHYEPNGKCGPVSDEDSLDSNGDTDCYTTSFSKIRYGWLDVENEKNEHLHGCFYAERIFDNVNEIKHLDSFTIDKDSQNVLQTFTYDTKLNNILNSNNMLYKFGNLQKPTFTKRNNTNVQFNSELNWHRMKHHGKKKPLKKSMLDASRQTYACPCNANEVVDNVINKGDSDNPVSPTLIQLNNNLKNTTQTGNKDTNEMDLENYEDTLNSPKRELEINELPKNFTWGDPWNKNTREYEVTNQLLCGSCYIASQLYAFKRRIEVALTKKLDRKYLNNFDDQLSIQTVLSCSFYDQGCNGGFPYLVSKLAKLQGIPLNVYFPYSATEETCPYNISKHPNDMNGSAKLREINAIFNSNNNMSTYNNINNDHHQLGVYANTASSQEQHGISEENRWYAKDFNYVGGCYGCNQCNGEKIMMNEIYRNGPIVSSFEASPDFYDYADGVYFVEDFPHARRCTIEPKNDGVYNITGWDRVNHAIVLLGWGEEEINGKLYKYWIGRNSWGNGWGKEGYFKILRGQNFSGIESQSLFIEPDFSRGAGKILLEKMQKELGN
# TEST DETAILS: primary screen, percent inhibition; read by cleavage of a fluorogenic dipeptide substrate; higher = more effect of the substance
# Design: species or system P. falciparum D10 trophozoite lysates; single well
In all, about 110,000 compounds went through this assay and about 230 (0.21%) showed an effect of 50% or more. Many of the other results were omitted from the sample, so strong results are more common in it than they were.
MEASURED ENDPOINT: % Inhibition @ 10 uM (%)
The answer is to be given in %; state only the numeric part.

These recorded examples may help you get a feel for the data.
INSERT INTO assay_data (smiles_structure, measured_endpoint, measure_unit, measured) VALUES
  ('N#CC1=C(N)SC(N)=C(C#N)C1c1cccc(Cl)c1', '% Inhibition @ 10 uM', '%', 19.5),
  ('O=C1NC(=O)/C(=C\c2ccc(-c3ccc(Cl)cc3)o2)S1', '% Inhibition @ 10 uM', '%', 6.08),
  ('N#CC1=C(N)SC(N)=C(C#N)C1c1ccccc1', '% Inhibition @ 10 uM', '%', 70.9),
  ('O=C(Nc1ccccc1)c1nc2ccccc2s1', '% Inhibition @ 10 uM', '%', 5.39),
  ('COc1ccc(Br)cc1CNC(=O)c1ccc2c(c1)ncn2C1CCCC1', '% Inhibition @ 10 uM', '%', 3.66),
  ('N#CC1=C(N)SC(N)=C(C#N)C1c1ccc(Cl)c(Cl)c1', '% Inhibition @ 10 uM', '%', 40.5);

// field: % Inhibition @ 10 uM; key: O=C1NC(=O)/C(=C\c2ccc(-c3ccc(Cl)c(C(=O)O)c3)o2)S1 ; value = 8.24

The compound CCOc1ccc(OCC)c(C2C(C#N)=C(N)SC(N)=C2C#N)c1 showed % Inhibition @ 10 uM equal to 23.2

Looking up O=C1NC(=O)/C(=C/c2ccc(-c3ccc(O)c(C(=O)O)c3)o2)S1 , I found its % Inhibition @ 10 uM recorded as 64.8

Recorded % Inhibition @ 10 uM (compound Cc1ccc(COc2ncnc3[nH]cnc23)c(C)c1 ): -3.09

Query Cc1cc2nnc(SCC(=O)O)n2c2ccccc12 yields % Inhibition @ 10 uM of -2.19

Entry COc1cc(C2C(C#N)=C(N)SC(N)=C2C#N)ccc1O — recorded % Inhibition @ 10 uM = 28.3

Reference source for all entries: paper PMC6919601
